FYI, the data here is from ChEMBL document CHEMBL1795213.

# ASSAY_EXPLANATION: Solubility of the compound in buffer
# Assay type: physicochemical
Entries annotated with measured solubility

[
  {
    "MOLECULAR_STRING": "CC(=O)N[C@@H](Cc1ccc(OCc2ccccc2)cc1)C(=O)N[C@H](C(=O)N[C@@H](CCCCNC(=N)NS(=O)(=O)c1c(C)c(C)c2c(c1C)CCC(C)(C)O2)C(=O)Cc1ccccc1)[C@@H](C)OCc1ccccc1",
    "RECORDED_RESULT": "400 µM"
  },
  {
    "MOLECULAR_STRING": "Cc1c(C)c(S(=O)(=O)NC(=N)NCCCC[C@H](NC(=O)[C@@H](NC(=O)[C@H](Cc2ccc(OCc3ccccc3)cc2)NS(=O)(=O)Cc2ccccc2)[C@@H](C)OCc2ccccc2)C(=O)Cc2ccccc2)c(C)c2c1OC(C)(C)CC2",
    "RECORDED_RESULT": "400 µM"
  }
]

For reference, reported solubility for CC(=O)N[C@@H](Cc1ccccc1)C(=O)N[C@@H](Cc1ccccc1)C(=O)N[C@@H](CCCCNC(=N)NS(=O)(=O)c1c(C)c(C)c2c(c1C)CCC(C)(C)O2)C(=O)Cc1ccccc1 stands at 400 µM

###

# ASSAY_EXPLANATION: Solubility of the compound in buffer
# Type: physicochemical
Below: a set of entries, each annotated with reported solubility.
Kindly provide the numeric value in µM only, without the unit symbol.

Sample answers from the record:
[
  {
    "MOLECULAR_STRING": "CC(=O)N[C@@H](Cc1ccccc1)C(=O)N[C@@H](Cc1ccccc1)C(=O)N[C@@H](CCCNC(=N)N)C(=O)Cc1ccccc1",
    "VALUE_UNIT": "µM",
    "solubility": 400
  },
  {
    "MOLECULAR_STRING": "Cc1c(C)c(S(=O)(=O)NC(=N)NCCCC[C@H](NC(=O)[C@H](CC(C)C)NC(=O)[C@H](Cc2ccc(OCc3ccccc3)cc2)NS(=O)(=O)Cc2ccccc2)C(=O)Cc2ccccc2)c(C)c2c1OC(C)(C)CC2",
    "VALUE_UNIT": "µM",
    "solubility": 400
  },
  {
    "MOLECULAR_STRING": "Cc1c(C)c(S(=O)(=O)NC(=N)NCCCC[C@H](NC(=O)[C@H](CC(C)C)NC(=O)[C@H](Cc2ccc(OCc3ccccc3)cc2)NC(=O)OC(C)(C)C)C(=O)Cc2ccccc2)c(C)c2c1OC(C)(C)CC2",
    "VALUE_UNIT": "µM",
    "solubility": 400
  },
  {
    "MOLECULAR_STRING": "N=C(N)NCCC[C@H](NC(=O)[C@H](Cc1ccccc1)NC(=O)[C@H](Cc1ccccc1)NS(=O)(=O)Cc1ccccc1)C(=O)Cc1ccccc1",
    "VALUE_UNIT": "µM",
    "solubility": 400
  }
]

From here, focus on the item given below.
solubility measured on N=C(N)NCCC[C@H](NC(=O)[C@H](Cc1ccccc1)NC(=O)[C@@H](N)Cc1ccccc1)C(=O)Cc1ccccc1 = 400

###

# ASSAY_EXPLANATION: Solubility of the compound in buffer
# Type: physicochemical
OBSERVABLE: solubility (µM)
Expressed in µM, but write only the number.

Sample CC(C)C[C@H](NC(=O)[C@H](Cc1ccccc1)NS(=O)(=O)Cc1ccccc1)C(=O)N[C@@H](CCCNC(=N)N)C(=O)Cc1ccccc1 ; solubility observed: 400

Lab note: Cc1c(C)c(S(=O)(=O)NC(=N)NCCC[C@H](NC(=O)[C@@H](NC(=O)OC(C)(C)C)[C@@H](C)OCc2ccccc2)C(=O)Cc2ccccc2)c(C)c2c1OC(C)(C)CC2 gave solubility of 400

Lab note: measured solubility of Cc1c(C)c(S(=O)(=O)NC(=N)NCCCC[C@H](NC(=O)[C@H](Cc2ccccc2)NC(=O)[C@@H](Cc2ccccc2)NC(=O)OCc2ccccc2)C(=O)Cc2ccccc2)c(C)c2c1OC(C)(C)CC2 was 400
